B1: library; numbered along this chain (parent)
chain: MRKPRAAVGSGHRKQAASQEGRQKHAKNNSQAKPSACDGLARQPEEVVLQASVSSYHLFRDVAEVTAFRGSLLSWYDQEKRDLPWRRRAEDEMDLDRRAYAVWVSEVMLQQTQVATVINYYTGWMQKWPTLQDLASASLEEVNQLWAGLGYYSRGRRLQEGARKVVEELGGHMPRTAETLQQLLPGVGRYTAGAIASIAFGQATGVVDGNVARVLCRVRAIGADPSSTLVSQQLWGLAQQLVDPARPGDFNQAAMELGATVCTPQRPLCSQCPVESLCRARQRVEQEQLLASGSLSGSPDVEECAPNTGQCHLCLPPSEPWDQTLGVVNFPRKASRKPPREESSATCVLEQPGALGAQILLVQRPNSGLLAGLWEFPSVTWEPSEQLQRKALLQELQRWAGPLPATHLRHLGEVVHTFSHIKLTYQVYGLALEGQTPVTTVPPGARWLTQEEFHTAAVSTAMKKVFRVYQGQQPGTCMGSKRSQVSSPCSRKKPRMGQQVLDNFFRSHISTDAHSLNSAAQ

Variants of: B1
Assay: 8OG:A repair function score (normalized; synonymous = 0, nonsense = -1) (normalized log-likelihood score); higher = more repair activity (WT-like);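 further: cells sorted at 72 h after reporter transfection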
Conditions: with 8OG:A DNA repair reporter (GFP) in HEK-293 MUTYH KO cells
ASSAY_READOUT: 8OG:A repair function score
# output: bare number, no unit

mutation_list=L403Y assay_readout="8OG:A repair function score" value_observed=-0.513
mutation_list=V328N assay_readout="8OG:A repair function score" value_observed=-0.0823
mutation_list=A137R assay_readout="8OG:A repair function score" value_observed=-0.54
mutation_list=A115W assay_readout="8OG:A repair function score" value_observed=-0.182
mutation_list=R398P assay_readout="8OG:A repair function score" value_observed=-0.556
mutation_list=T112C assay_readout="8OG:A repair function score" value_observed=-0.907

Look up and report measured 8OG:A repair function score for this entry: L83T
-0.104

Look up and report measured 8OG:A repair function score for this entry: L139W
-0.0565

Look up and report measured 8OG:A repair function score for this entry: T130I
-0.27

Look up and report measured 8OG:A repair function score for this entry: R98D
-0.438

Look up and report measured 8OG:A repair function score for this entry: S515M
-0.00894
